# assay.explanation: Permeability of compound
# Type: ADME
# stated.conditions: not told; read-out: permeability
endpoint: Papp (×10⁻⁶ cm/s)
State just the number; it will be interpreted in ×10⁻⁶ cm/s.

Input: Any idea what Papp was measured for `CCCc1nc2c(C)cc(-c3nc4ccccc4n3C)cc2n1Cc1ccc(-c2ccccc2C(=O)O)cc1` ?
Output: 29

====

# assay.explanation: Aqueous solubility of compound measured after 48 hrs by HPLC analysis
# Type: physicochemical
# stated.conditions: buffer
endpoint: solubility at 48 h (µM)
Dear colleague, please return just the value in µM, with no unit written.

Input: Please give the measured solubility at 48 h for this compound: `CCCc1nc2c(C)cc(-c3nc4ccccc4n3C)cc2n1Cc1ccc(-c2ccccc2C(=O)O)cc1`
Output: 19.2
